Recorded values, source patent US4057545A.

Tested on: Candida albicans
Test: series dilution test in vitro, Cand. alb.
Format: cell-based
Parameters: key: .phi.: complete inhibition; (+): strong inhibition; +: moderate inhibition; ++: slight inhibition; +++: no inhibition
Conditions: dilution 1: 100,000
measurement kind: inhibition of Cand. alb., 2nd value

See these solved cases before continuing.
| molecule | system | value measured |
| --- | --- | --- |
| Clc1ccc(C(=Cc2ccc(Br)cc2)Cn2ccnc2)c(Cl)c1 | Candida albicans | ++ |
| Clc1ccc(C=C2c3ccccc3CC2n2ccnc2)cc1 (stereo not shown) | Candida albicans | ++ |
| Clc1ccc(C=C2c3cc(Cl)ccc3CC2n2ccnc2)c(Cl)c1 (stereo not shown) | Candida albicans | +++ |
| Clc1ccc(C=C2c3cc(Cl)ccc3CC2n2ccnc2)cc1 (stereo not shown) | Candida albicans | ++ |
| Brc1ccc(C=C(Cn2ccnc2)c2ccc(Br)cc2)cc1 | Candida albicans | ++ |
| Clc1ccc(C=C2c3ccccc3CCC2n2ccnc2)cc1 (stereo not shown) | Candida albicans | ++ |

Query block: GET /values?readout=inhibition of Cand. alb., 2nd value&item= "Cc1ccc(C(=Cc2ccc(Cl)cc2Cl)Cn2ccnc2)cc1"
Result block: (+)

Query block: Try "Clc1ccc(C=C(Cn2ccnc2)c2ccc(Cl)cc2)cc1" next.
Result block: (+ )

Query block: What about "COc1ccc(C(=Cc2ccccc2)Cn2ccnc2)cc1" ?
Result block: +++

Query block: Now give it for C(=C1c2ccccc2CCC1n1ccnc1)c1ccccc1 (stereo not shown) too.
Result block: +++

Query block: Next molecule: "Clc1ccc(C(=Cc2ccc(Br)cc2)Cn2ccnc2)cc1"
Result block: ++

Query block: Request: "Clc1ccc(C(=Cc2ccc(Cl)c(Cl)c2)Cn2ccnc2)c(Cl)c1"
Result block: ++

Query block: What do we get for Clc1ccc(C=C2c3ccccc3CC2n2ccnc2)cc1Cl (stereo not shown) ?
Result block: ++
